target: Dual specificity protein kinase CLK2 (Homo sapiens, UniProt P49760); also: in the data inactive means no Kd found up to 30 µM
Sequence (P49760 whole entry): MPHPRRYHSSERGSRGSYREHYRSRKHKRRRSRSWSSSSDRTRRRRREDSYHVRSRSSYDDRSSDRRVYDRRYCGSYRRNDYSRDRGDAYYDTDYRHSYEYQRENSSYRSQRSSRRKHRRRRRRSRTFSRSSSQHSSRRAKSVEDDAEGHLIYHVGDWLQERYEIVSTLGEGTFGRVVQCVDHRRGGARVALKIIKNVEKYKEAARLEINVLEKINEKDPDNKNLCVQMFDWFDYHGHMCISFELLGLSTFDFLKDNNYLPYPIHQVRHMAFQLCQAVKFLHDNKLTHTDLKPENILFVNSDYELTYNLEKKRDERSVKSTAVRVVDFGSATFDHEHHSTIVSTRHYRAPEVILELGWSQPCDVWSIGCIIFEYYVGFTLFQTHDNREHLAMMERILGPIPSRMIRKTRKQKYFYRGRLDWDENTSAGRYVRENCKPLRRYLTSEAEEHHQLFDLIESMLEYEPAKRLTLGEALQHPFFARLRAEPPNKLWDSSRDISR
Active and inactive are the calls of the source.
Test readout: Kd

// solved cases for Kd follow
Compound	Test readout	Reported measurement
O=S(=O)(c1cccc2c(O)nccc12)N1CCCNCC1 [HYDROXYFASUDIL]	Kd	> 30 µM (inactive)
N#CCNC(=O)c1ccc(-c2ccnc(Nc3ccc(N4CCOCC4)cc3)n2)cc1 [MOMELOTINIB]	Kd	> 30 µM (inactive)
c1cc(OCCN2CCCCC2)cc(-c2n[nH]c3ccc(-c4nc[nH]n4)cc23)c1 [CC-401]	Kd	> 30 µM (inactive)

// returns Kd for COc1cc2ncnc(Nc3ccc(O)cc3)c2cc1OC [WHI-P131] with Dual specificity protein kinase CLK2 (Homo sapiens, UniProt P49760); value = > 30 µM (inactive)

// returns Kd for CNC(=O)c1cc(COc2nnc(Nc3ccc(Cl)cc3)c3ccoc23)ccn1 [TELATINIB] with Dual specificity protein kinase CLK2 (Homo sapiens, UniProt P49760); value = > 30 µM (inactive)

// returns Kd for Cc1cc(C(=O)Nc2cc(Oc3ccc4nc(NC(=O)C5CC5)cn4n3)ccc2C)n(C)n1 [TAK-593] with Dual specificity protein kinase CLK2 (Homo sapiens, UniProt P49760); value = > 30 µM (inactive)

// returns Kd for Cc1cc(Nc2nc(N[C@@H](C)c3ncc(F)cn3)ncc2Cl)n[nH]1 [AZD-1480] with Dual specificity protein kinase CLK2 (Homo sapiens, UniProt P49760); value = > 30 µM (inactive)

// returns Kd for CNC(=O)c1ccc(Nc2ncc(C(F)(F)F)c(NCc3nccnc3N(C)S(C)(=O)=O)n2)cc1 [DEFACTINIB] with Dual specificity protein kinase CLK2 (Homo sapiens, UniProt P49760); value = > 30 µM (inactive)

// returns Kd for COc1cccc2cc(-c3nc([C@H]4CC[C@H](C(=O)O)CC4)n4ncnc(N)c34)[nH]c12 [OSI-027] with Dual specificity protein kinase CLK2 (Homo sapiens, UniProt P49760); value = > 30 µM (inactive)

Origin of values: ChEMBL document CHEMBL3991601
